Source: the kinase profiling compilation of Christmann-Franck et al. (2016)

target: CSNK2A2 (human) (UniProt P19784); assay: KINOMEscan competition binding; details: compound 10.0 µM
Sequence (P19784 whole entry, looked up): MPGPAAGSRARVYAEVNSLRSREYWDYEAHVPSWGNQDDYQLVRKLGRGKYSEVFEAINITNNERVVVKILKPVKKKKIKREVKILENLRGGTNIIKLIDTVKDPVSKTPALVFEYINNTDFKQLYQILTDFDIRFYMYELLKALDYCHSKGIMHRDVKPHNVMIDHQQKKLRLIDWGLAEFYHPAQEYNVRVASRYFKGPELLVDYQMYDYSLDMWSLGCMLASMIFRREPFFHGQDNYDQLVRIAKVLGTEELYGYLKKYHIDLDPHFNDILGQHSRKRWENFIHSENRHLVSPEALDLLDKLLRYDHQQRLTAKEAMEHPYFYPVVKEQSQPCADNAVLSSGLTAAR
Classify: rule met when kinase still bound, per cent of control is strictly less than 20%; rule not met when kinase still bound, per cent of control is not.

{"Molecule": "CN1CCN(c2ccc(C(=O)Nc3ncc4c(n3)N(C)c3ccccc3C(=O)N4C)cc2)CC1", "Group Label": "rule not met"}
{"Molecule": "N=C1NC(=O)/C(=C/c2ccc(-c3ccccc3O)o2)S1", "Group Label": "rule met"}
{"Molecule": "O=C1NC(=S)S/C1=C\\c1ccc(-c2cncc3ccccc23)o1", "Group Label": "rule met"}
{"Molecule": "COc1cc(N2CCN(C)CC2)ccc1Nc1ncc2c(n1)N(C)c1sccc1C(=O)N2C", "Group Label": "rule not met"}
{"Molecule": "NS(=O)(=O)c1ccc(-c2ccc(/C=C3\\SC(=O)NC3=O)o2)cc1", "Group Label": "rule met"}
{"Molecule": "CSC1=NC(=O)/C(=C/c2c[nH]c(=O)c(-c3ccc(NS(C)(=O)=O)cc3)c2)S1", "Group Label": "rule met"}
{"Molecule": "N=C1NC(=O)/C(=C/c2ccc(-c3cncc4ccccc34)o2)S1", "Group Label": "rule met"}
{"Molecule": "CN1C(=O)c2ccccc2N(C)c2nc(Nc3ccc(N4CCC(O)CC4)cc3)ncc21", "Group Label": "rule not met"}
{"Molecule": "Nc1cccc(-c2cc(/C=C3\\SC(=O)NC3=O)c[nH]c2=O)c1", "Group Label": "rule met"}
{"Molecule": "CS(=O)(=O)Nc1ccc(-c2cc(/C=C3\\SC(=N)NC3=O)c[nH]c2=O)cc1", "Group Label": "rule met"}
{"Molecule": "COc1cc(N2CCN(C)CC2)ccc1Nc1ncc2c(n1)Nc1ccccc1NC2=O", "Group Label": "rule not met"}
{"Molecule": "CCN1CCN(Cc2cc(NC(=O)c3cccc4cc(-c5ccc(/C=C6\\SC(=O)NC6=O)o5)ccc34)cc(C(F)(F)F)c2)CC1", "Group Label": "rule met"}
{"Molecule": "CS(=O)(=O)Nc1ccc(-c2ccc(/C=C3\\SC(=N)NC3=O)o2)cc1", "Group Label": "rule not met"}
{"Molecule": "COc1cc(N2CCN(C)CC2)ccc1Nc1ncc2c(n1)N(C)c1ccccc1N(C)C2=O", "Group Label": "rule not met"}
{"Molecule": "O=C1NC(=O)/C(=C/c2ccc(-c3ccc(F)cc3O)o2)S1", "Group Label": "rule met"}
{"Molecule": "O=C1NC(=O)/C(=C/c2ccc(-c3ccc(C(=O)Nc4ccc(N5CCNCC5)cc4)cc3)o2)S1", "Group Label": "rule not met"}
{"Molecule": "N=C1NC(=O)/C(=C/c2ccc(-c3csc4ccccc34)o2)S1", "Group Label": "rule met"}
{"Molecule": "CS(=O)C1=NC(=O)/C(=C/c2ccc(-c3ccc(S(N)(=O)=O)cc3)o2)S1 (configuration not stated)", "Group Label": "rule not met"}
{"Molecule": "O=C1NC(=O)/C(=C/c2c[nH]c(=O)c(-c3ccc(N4CCNCC4)nc3)c2)S1", "Group Label": "rule met"}
{"Molecule": "CN1C(=O)c2ccccc2N(C)c2nc(NS(=O)(=O)c3ccc(N)cc3)ncc21", "Group Label": "rule not met"}
{"Molecule": "N=C1NC(=O)/C(=C/c2ccc(-c3ccc(C(=O)Nc4ccc(N5CCNCC5)cc4)cc3O)o2)S1", "Group Label": "rule met"}
{"Molecule": "CS(=O)(=O)Nc1ccc(-c2ccc(/C=C3\\SC(=N)NC3=O)o2)c(O)c1", "Group Label": "rule not met"}
{"Molecule": "O=C1NC(=O)/C(=C/c2c[nH]c(=O)c(-c3ccc(C(=O)Nc4ccc(N5CCNCC5)cc4)cc3)c2)S1", "Group Label": "rule not met"}
{"Molecule": "NS(=O)(=O)c1ccc(-c2cccc(/C=C3\\SC(=O)NC3=O)c2)cc1", "Group Label": "rule met"}
{"Molecule": "N=C1NC(=O)/C(=C/c2c[nH]c(=O)c(-c3ccc(S(N)(=O)=O)cc3)c2)S1", "Group Label": "rule not met"}
{"Molecule": "N=C1NC(=O)/C(=C/c2ccc(-c3ccc4c(C(=O)Nc5ccc(N6CCNCC6)cc5)cccc4c3)o2)S1", "Group Label": "rule not met"}
{"Molecule": "COc1cc(C(N)=O)ccc1-c1ccc(/C=C2\\SC(=N)NC2=O)o1", "Group Label": "rule not met"}
